Recorded Affinity ELISA CPE mutant ratio (1:9, pH 6.0/7.4), one value per entry.
# system: T1, Axl protein (human, UniProt P30530 26-451)
# T1 construct: extracellular domain; also called human Axl; hAxl
# T1 sequence (looked up): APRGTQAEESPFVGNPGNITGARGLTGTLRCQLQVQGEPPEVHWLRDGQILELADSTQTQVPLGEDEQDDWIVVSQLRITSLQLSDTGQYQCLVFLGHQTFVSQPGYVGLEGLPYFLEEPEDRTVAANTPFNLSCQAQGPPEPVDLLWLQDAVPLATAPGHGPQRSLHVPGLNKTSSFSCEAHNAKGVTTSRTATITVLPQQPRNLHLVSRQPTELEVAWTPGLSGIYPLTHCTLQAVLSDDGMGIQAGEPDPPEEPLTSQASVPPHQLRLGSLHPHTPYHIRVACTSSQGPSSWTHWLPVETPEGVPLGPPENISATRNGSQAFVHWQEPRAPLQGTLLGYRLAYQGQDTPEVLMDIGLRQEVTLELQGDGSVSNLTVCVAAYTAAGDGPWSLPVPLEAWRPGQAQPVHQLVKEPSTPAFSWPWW
# assay.comment: ELISA, 1:9 dilution, pH 6.0 over pH 7.4
Reply numerically in ratio, unit not repeated.

binder	unit.descriptor	value
LC-V029D (antibody, V domains shown) VH: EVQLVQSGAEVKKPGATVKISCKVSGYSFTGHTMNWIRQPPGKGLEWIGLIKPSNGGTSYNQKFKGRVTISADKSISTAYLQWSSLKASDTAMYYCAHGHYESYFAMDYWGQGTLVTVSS VL: DIQMTQSPSSLSASVGDRVTITCKASQDDSSAVAWYQQKPGQAPRLLIYWASTRHTGVPSRFSGSGSGTEFTLTISSLQPDDFATYYCQEHFSTPLTFGQGTKVEIK	ratio	2.68
LC-T097I (antibody, V domains shown) VH: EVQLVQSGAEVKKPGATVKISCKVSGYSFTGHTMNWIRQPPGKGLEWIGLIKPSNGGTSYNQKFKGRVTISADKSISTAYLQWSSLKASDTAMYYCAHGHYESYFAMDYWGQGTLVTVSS VL: DIQMTQSPSSLSASVGDRVTITCKASQDVSSAVAWYQQKPGQAPRLLIYWASTRHTGVPSRFSGSGSGTEFTLTISSLQPDDFATYYCQEHFSTPLIFGQGTKVEIK	ratio	4.05

For LC-F092N (antibody, V domains shown) VH: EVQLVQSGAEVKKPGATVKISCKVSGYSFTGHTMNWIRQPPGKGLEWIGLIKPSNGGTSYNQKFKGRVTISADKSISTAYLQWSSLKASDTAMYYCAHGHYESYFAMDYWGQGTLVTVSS VL: DIQMTQSPSSLSASVGDRVTITCKASQDVSSAVAWYQQKPGQAPRLLIYWASTRHTGVPSRFSGSGSGTEFTLTISSLQPDDFATYYCQEHNSTPLTFGQGTKVEIK the binder record lists Affinity ELISA CPE mutant ratio (1:9, pH 6.0/7.4) as 2

For LC-F092E (antibody, V domains shown) VH: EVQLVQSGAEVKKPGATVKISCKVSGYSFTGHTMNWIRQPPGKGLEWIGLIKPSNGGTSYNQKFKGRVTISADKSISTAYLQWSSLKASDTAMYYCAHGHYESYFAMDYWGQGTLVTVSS VL: DIQMTQSPSSLSASVGDRVTITCKASQDVSSAVAWYQQKPGQAPRLLIYWASTRHTGVPSRFSGSGSGTEFTLTISSLQPDDFATYYCQEHESTPLTFGQGTKVEIK the binder record lists Affinity ELISA CPE mutant ratio (1:9, pH 6.0/7.4) as 2

For LC-A051N (antibody, V domains shown) VH: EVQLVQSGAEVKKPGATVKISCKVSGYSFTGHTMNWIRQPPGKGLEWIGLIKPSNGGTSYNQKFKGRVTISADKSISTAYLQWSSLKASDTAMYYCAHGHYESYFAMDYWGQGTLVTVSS VL: DIQMTQSPSSLSASVGDRVTITCKASQDVSSAVAWYQQKPGQAPRLLIYWNSTRHTGVPSRFSGSGSGTEFTLTISSLQPDDFATYYCQEHFSTPLTFGQGTKVEIK the binder record lists Affinity ELISA CPE mutant ratio (1:9, pH 6.0/7.4) as 2.2
